- Test system: 143B
- Assay Explanation: Cytotoxic Activity was evaluated against 143B (TK-) tumor cells
- Format: functional, cell-based
- Test Settings: Homo sapiens
For each entry below, report its pIC50 value.
One number for each entry, as −log10 of the molar value.

# Compound, Tested Target, Recorded Endpoint, Test Result
measured = [
    ("CCC(CC)n1c(C)cc2c3c(N)nc(N)nc3ccc21", "143B", "pIC50", 9.10),
]

// pIC50 value for CN(Cc1cnc2nc(N)nc(N)c2n1)c1ccc(C(=O)N[C@@H](CCC(=O)O)C(=O)O)cc1 [METHOTREXATE] : 8.06

###

- Test system: HCT-8
- Assay Explanation: Activity was evaluated against HCT-8 tumor cells
- Assay type: functional, cell-based
- Test Settings: Homo sapiens
Recorded Endpoint: IC50 (nM)
Numbers only, in nM.

# Compound, Test Result
measured = [
    ("CCc1cc2c3c(N)nc(N)nc3ccc2n1CC", 0.59),
    ("CCC(CC)n1c(C)cc2c3c(N)nc(N)nc3ccc21", 0.74),
    ("CCCc1cc2c3c(N)nc(N)nc3ccc2n1C(CC)CC", 4.4),
    ("COc1cc(NCc2ccc3nc(N)nc(N)c3c2C)cc(OC)c1OC [TRIMETREXATE]", 1.8),
    ("CCC(CC)n1c(C(C)C)cc2c3c(N)nc(N)nc3ccc21", 0.75),
    ("CCc1cc2c3c(N)nc(N)nc3ccc2n1C", 8),
    ("CCC(CC)n1ccc2c3c(N)nc(N)nc3ccc21", 6),
    ("Cc1cc2c3c(N)nc(N)nc3ccc2n1C(C)C", 7.4),
]

Look at each compound and report its IC50.
1. Cn1ccc2c3c(N)nc(N)nc3ccc21
2. CCc1cc2c3c(N)nc(N)nc3ccc2n1C(C)(C)C
3. CCCc1cc2c3c(N)nc(N)nc3ccc2n1CC
4. CCC(C)(C)n1c(C)cc2c3c(N)nc(N)nc3ccc21

output:
1: 580; 2: 1.3; 3: 3.1; 4: 2.1

###

For each entry below, report its log10 of MIC value.
- Tested on: Candida albicans
- Assay Explanation: Minimum inhibitory concentration evaluated against Candida albicans
- Assay type: functional
Please note: log10 values; quantity MIC; unit µg/mL.

These solved cases illustrate the format of a correct answer.
# Compound, Recorded Endpoint, Test Result
measured = [
    ("CCc1cc2c3c(N)nc(N)nc3ccc2n1C(C)CC (configuration not stated)", "log10 of MIC", -1.00),
    ("CCC(CC)n1ccc2c3c(N)nc(N)nc3ccc21", "log10 of MIC", -3.00),
    ("CC(C)(C)c1cc2c(ccc3nc(N)nc(N)c32)[nH]1", "log10 of MIC", -1.30),
    ("CCc1cc2c3c(N)nc(N)nc3ccc2n1CC", "log10 of MIC", -0.70),
    ("CCC(C)(C)n1c(C)cc2c3c(N)nc(N)nc3ccc21", "log10 of MIC", -1.60),
    ("Cn1ccc2c3c(N)nc(N)nc3ccc21", "log10 of MIC", 0.20),
    ("Cc1cc2c3c(N)nc(N)nc3ccc2n1C", "log10 of MIC", -1.00),
    ("CC(C)n1c(C(C)(C)C)cc2c3c(N)nc(N)nc3ccc21", "log10 of MIC", -1.30),
]

Look at each compound and report its log10 of MIC.
1. CCc1cc2c3c(N)nc(N)nc3ccc2n1C
2. Nc1nc(N)c2c(ccc3[nH]ccc32)n1
3. Cc1cc2c3c(N)nc(N)nc3ccc2n1C(C)C
4. CCc1cc2c3c(N)nc(N)nc3ccc2n1C(CC)CC
5. CCC(CC)n1c(C)cc2c3c(N)nc(N)nc3ccc21

output:
1: -1.00; 2: -0.10; 3: -1.60; 4: -1.00; 5: -1.60

Look at each compound and report its log10 of MIC.
1. CCn1c(C(C)C)cc2c3c(N)nc(N)nc3ccc21
2. CCCc1cc2c3c(N)nc(N)nc3ccc2n1CC
3. CC(C)c1cc2c(ccc3nc(N)nc(N)c32)[nH]1

output:
-1.00
-1.00
-1.30
